# EXPERIMENT SUMMARY: restored growth of temperature-sensitive Mot1-301 yeast – S. cerevisiae, ATP luminescence, 38.5C, SUMOylation pathway inhibitor project, primary screen (AID 2716);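 also: OY570 slx delta 5 strain wells were the positive control but not used for scaling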
# CONDITION LABEL: S. cerevisiae Mot1-301 growth rescue, at 18.8 µM, percent above DMSO median, 100 means doubled
Out of some 320,000 compounds screened, about 3,300 (1%) were called active.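 The calls were made as follows: active = every valid replicate shows activation above 250% relative to neutral control wells; inactive = the rest, any valid replicate at or below 250%.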 The list comes from a sample in which actives are over-represented; it also holds close analogues and randomly drawn compounds.
Pick from active, inactive when you respond.

Request: I'd appreciate the recorded outcome for Cc1cccc(C)c1NC(=O)C(c1ccccc1)N1CC(=O)Nc2ccccc21 (centres undefined) from this test.
Response: inactive

Request: I'd appreciate the recorded outcome for CC(Oc1ccccc1[N+](=O)[O-])C(=O)N/N=C/c1ccoc1 (centres undefined) from this test.
Response: active

Request: I'd appreciate the recorded outcome for COc1ccc(C(C[N+](=O)[O-])n2nc(C)cc2C)cc1 (centres undefined) from this test.
Response: active

Request: I'd appreciate the recorded outcome for COc1ccc(CNC(=O)COC(=O)c2ccc(C)c(S(=O)(=O)N3CCOCC3)c2)cc1OC from this test.
Response: inactive

Request: I'd appreciate the recorded outcome for COc1cccc(/C=N\Nc2nncc(-c3ccccc3)n2)c1 from this test.
Response: inactive

Request: I'd appreciate the recorded outcome for Cc1ccc(NC(=O)Nc2cccnc2)cc1 from this test.
Response: inactive

Request: I'd appreciate the recorded outcome for CCOC(=O)C1(Cc2cccc(OC)c2)CCN(C(C)COC)CC1 (centres undefined) from this test.
Response: inactive

Request: I'd appreciate the recorded outcome for CCOC(=O)C1(Cc2cccc(OC)c2)CCCN(C(=O)CCSC)C1 (centres undefined) from this test.
Response: inactive

Request: I'd appreciate the recorded outcome for COc1cccc2sc3cc(NCC[C@@H]4CCCN4C)ccc3c(=O)c12 from this test.
Response: inactive

Request: I'd appreciate the recorded outcome for CCOc1ccc(/C=N/Nc2nncc(-c3ccccc3)n2)cc1OC from this test.
Response: active

Request: I'd appreciate the recorded outcome for Cc1ccc(S(=O)(=O)CC(=O)Nc2c(C)n(C)n(-c3ccccc3)c2=O)cc1 from this test.
Response: inactive

Request: I'd appreciate the recorded outcome for CN(/C(=N/S(=O)(=O)c1cccs1)c1ccccc1)c1ccc(O)cc1 from this test.
Response: inactive

Request: I'd appreciate the recorded outcome for O=C(CNC(c1ccccc1)c1ccccc1)Nc1ccc(F)cc1 from this test.
Response: inactive

Request: I'd appreciate the recorded outcome for NS(=O)(=O)c1cc2c(cc1Cl)NC(C(Cl)Cl)NS2(=O)=O (centres undefined) from this test.
Response: inactive

Request: I'd appreciate the recorded outcome for CC1CCCCN1C(=O)Cn1c(=O)oc2cc(S(=O)(=O)N3CCCCC3)ccc21 (centres undefined) from this test.
Response: inactive

Request: I'd appreciate the recorded outcome for O=C(NCCN1CCOCC1)/C(=C/c1ccc(F)cc1)NC(=O)c1ccccc1 from this test.
Response: inactive

Request: I'd appreciate the recorded outcome for CCCC(=O)N(CCN1CCOCC1)c1nc2ccc(OCC)cc2s1 from this test.
Response: active

Request: I'd appreciate the recorded outcome for Cc1ccccc1OCCC(=O)Nc1c(C)n(C)n(-c2ccccc2)c1=O from this test.
Response: inactive

Request: I'd appreciate the recorded outcome for CCNc1nc(N)nc(-c2cc(Cl)ccc2OC)n1 from this test.
Response: active

Request: I'd appreciate the recorded outcome for Cc1ccc(Cn2c(SCC(=O)N/N=C/c3ccccc3OCC(=O)O)nc3ccccc32)cc1 from this test.
Response: inactive

Request: I'd appreciate the recorded outcome for O=C(COc1ccccc1[N+](=O)[O-])N/N=C/c1ccc[nH]1 from this test.
Response: inactive

Request: I'd appreciate the recorded outcome for O=C(O)Cc1ccc(NCc2ccccc2Cl)cc1 from this test.
Response: inactive

Request: I'd appreciate the recorded outcome for O=C(NCC#CCSc1nnc(-c2cccc3ccccc23)o1)c1cccs1 from this test.
Response: inactive

Request: I'd appreciate the recorded outcome for COc1cccc(N(CC(=O)NCc2ccccc2)C(=O)CCC(=O)Nc2nccs2)c1 from this test.
Response: inactive

Request: I'd appreciate the recorded outcome for O=C(Cc1ccc(-c2ccccc2)cc1)NC(c1ccccc1)c1ccccc1 from this test.
Response: inactive

Request: I'd appreciate the recorded outcome for Cc1ccc(NC(=O)CCC(=O)N/N=C/c2ccco2)c(C)c1 from this test.
Response: inactive

Request: I'd appreciate the recorded outcome for CCn1c(SCC(=O)N/N=C/c2ccccc2OCC(=O)O)nnc1-c1ccc(C(C)(C)C)cc1 from this test.
Response: active

Request: I'd appreciate the recorded outcome for COc1cc(C(=O)OCC(=O)NC(C)CCc2ccccc2)cc(OC)c1OC (centres undefined) from this test.
Response: active

Request: I'd appreciate the recorded outcome for O=C(c1cccc(F)c1)N1CCC(O)(c2cccnc2)CC1 from this test.
Response: inactive

Request: I'd appreciate the recorded outcome for CCn1c(SCC(=O)N/N=C/C=C/c2ccccc2[N+](=O)[O-])nnc1-c1ccccc1 from this test.
Response: inactive

Request: I'd appreciate the recorded outcome for COC(=O)Cc1ccc(OC(=O)C2CCN(S(=O)(=O)c3ccc(OC)c(OC)c3)CC2)cc1 from this test.
Response: inactive

Request: I'd appreciate the recorded outcome for COc1ccc(C(=O)NCC2CCCN2S(=O)(=O)c2cccs2)cc1OC (centres undefined) from this test.
Response: inactive

Request: I'd appreciate the recorded outcome for NC(=O)c1nnsc1-c1ccc(-c2snnc2C(N)=O)cc1 from this test.
Response: inactive

Request: I'd appreciate the recorded outcome for CCCC(=O)Nc1nc2ccc(NC(=O)c3c(F)c(F)c(OC)c(F)c3F)cc2s1 from this test.
Response: inactive

Request: I'd appreciate the recorded outcome for CC(CCc1ccccc1)NC(=O)COC(=O)c1ccc(F)cc1 (centres undefined) from this test.
Response: inactive

Request: I'd appreciate the recorded outcome for N#CCc1ccc(OC(=O)c2cccnc2)cc1 from this test.
Response: inactive

Request: I'd appreciate the recorded outcome for CCSC(C)CC1C/C(=N/O)c2c(C)noc2C1 (centres undefined) from this test.
Response: inactive

Request: I'd appreciate the recorded outcome for O=C(Nc1ccccc1N1CCCC1)c1ccc2ccccc2c1 from this test.
Response: inactive

Request: I'd appreciate the recorded outcome for COc1cccc(CNC(=O)Cn2c(=O)oc3cc(S(=O)(=O)N4CCCCC4)ccc32)c1 from this test.
Response: inactive

Request: I'd appreciate the recorded outcome for COc1ccc(C(=O)OCC(=O)c2ccc(C)c(S(=O)(=O)N3CCOCC3)c2)cc1OC from this test.
Response: active

Request: I'd appreciate the recorded outcome for Cc1ccc(NC(=O)COC(=O)CN2CCCCCC2=O)c(C)c1 from this test.
Response: inactive

Request: I'd appreciate the recorded outcome for C=Cn1c(C(=O)O)ccc1-c1ccc(OC)cc1 from this test.
Response: inactive

Request: I'd appreciate the recorded outcome for CC(C)CCNC(=O)Cn1c(=O)oc2cc(S(=O)(=O)N3CC(C)CC(C)C3)ccc21 (centres undefined) from this test.
Response: active

Request: I'd appreciate the recorded outcome for Cc1cc(Br)ccc1NC(=O)c1cnc(N2CCN(c3ccccn3)CC2)c2ccccc12 from this test.
Response: active

----------
Assign growth rescue to each entry below.
# EXPERIMENT SUMMARY: restored growth of temperature-sensitive Mot1-301 yeast – S. cerevisiae, ATP luminescence, 38.5C, SUMOylation pathway inhibitor project, primary screen (AID 2716);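 also: OY570 slx delta 5 strain wells were the positive control but not used for scaling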
# CONDITION LABEL: S. cerevisiae Mot1-301 growth rescue, at 18.8 µM, hits give high values, percent above DMSO median, 100 means doubled
Hit rate of the full screen: of about 320,000 compounds, about 3,300 (1%) were called active. The entries come from a sample that favours actives as a whole.
Form entry: value (%) — number only.

Request: Output growth rescue of Cc1ccsc1C1C(C#N)=C(N)OC2=C1C(=O)CC(C)C2 (stereo not given)
Response: -1.54

Request: Output growth rescue of CC(C)C[C@H](NC(=O)Nc1cccc(C(F)(F)F)c1)C(=O)O
Response: -3.86

Request: Output growth rescue of COc1cccc(NC(=O)c2ccc(Cn3cc([N+](=O)[O-])cn3)o2)c1
Response: -22.4

Request: Output growth rescue of Cc1nc2ccc(NC(=O)c3cccc(S(=O)(=O)N4CCOCC4)c3)cc2s1
Response: -14.6

Request: Output growth rescue of N#CC1=C(N)Oc2[nH]c(=S)[nH]c(=O)c2C12C(=O)Nc1ccccc12 (stereo not given)
Response: -12

Request: Output growth rescue of N#CC1=C(N)Oc2n[nH]c(CSc3ccccc3)c2C12C(=O)Nc1ccccc12 (stereo not given)
Response: 564

Request: Output growth rescue of Cn1cc([N+](=O)[O-])c(C(=O)Nc2ccc3c(c2)OCCO3)n1
Response: -2.5

Request: Output growth rescue of CCC(C(=O)NC1CCCCC1)N(C(=O)c1snc(C(N)=O)c1N)c1ccc(OC)cc1OC (stereo not given)
Response: -10.5

Request: Output growth rescue of CCOc1ccc(C(C(=O)NC2CCCC2)N(C(=O)c2snc(C(N)=O)c2N)C2CCCC2)cc1 (stereo not given)
Response: 922

Request: Output growth rescue of O=C(Oc1ccccc1Cl)c1ccc(N2CCOCC2)c([N+](=O)[O-])c1
Response: 334
